protocol_notes: Clearance in Sprague-Dawley rat at 1 mg/kg, iv and 2 mg/kg, po
Type: ADME, organism-based
applied_conditions: in vivo
Entries and their clearance values follow.

smiles_str: O=C1OCCc2cc(CCN3CCN(C(=O)Cc4ccc(-n5cnnn5)cc4)CC3)ccc21
clearance [mL/min/kg]: 43
--
smiles_str: O=C1OCc2cc(CCN3CCN(C(=O)Cc4ccc(-n5cnnn5)cc4)CC3)ccc21
clearance [mL/min/kg]: 40

---

protocol_notes: Half life in Sprague-Dawley rat at 1 mg/kg, iv and 2 mg/kg, po
Format: ADME, organism-based
applied_conditions: in vivo
Below: a set of entries, each annotated with reported half-life.
endpoint_label: half-life (min)

smiles_str: O=C1OCCc2cc(CCN3CCN(C(=O)Cc4ccc(-n5cnnn5)cc4)CC3)ccc21
numeric_value: 30
--
smiles_str: O=C1OCc2cc(CCN3CCN(C(=O)Cc4ccc(-n5cnnn5)cc4)CC3)ccc21
numeric_value: 37.2
